Reference source for all entries: PubChem BioAssay AID2060486

System: IGROV1 complex spheroids (HUVEC, MSC), viability % test/control
Procedure text: Anticancer human tumor IGROV1 cell line growth inhibition [GQUAD];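 note: spheroids exposed to compounds for 7 days before readout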;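 for viability, T/C: 100% = DMSO vehicle control viability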
Setup conditions: second compound 0.316 µM; first compound 0.0316 µM; stronger effect = lower value
Property: viability, T/C; scope: individual molecules
Could you give me the number in %? Just the number is fine.

Molecule: COc1cc(C2c3cc4c(cc3C(OC3OC5COC(C)OC5C(O)C3O)C3COC(=O)C23)OCO4)cc(OC)c1O (stereo not drawn) + CN(C)c1ccc(Nc2c3ccc(NC(=O)CCN4CCCC4)cc3nc3cc(NC(=O)CCN4CCCC4)ccc23)cc1
Study target: IGROV1 complex spheroids (HUVEC, MSC), viability % test/control
Recorded measurement: 88

Request: Which viability, T/C is reported for this molecule? C=CC(=O)N1CCN(c2nc(=O)n(-c3c(C)ccnc3C(C)C)c3nc(-c4c(O)cccc4F)c(F)cc23)C(C)C1 (stereo not drawn) + Cc1[nH]c2ccc(F)cc2c1-c1nc2c3cccnc3c3ncccc3c2[nH]1
Result: 70.5

Request: Which viability, T/C is reported for this molecule? C=CC(=O)N1CCN(c2nc(=O)n(-c3c(C)ccnc3C(C)C)c3nc(-c4c(O)cccc4F)c(F)cc23)C(C)C1 (stereo not drawn) + CN(C)c1ccc(Nc2c3ccc(NC(=O)CCN4CCCC4)cc3nc3cc(NC(=O)CCN4CCCC4)ccc23)cc1
Result: 91.5

====

Test system: IGROV1 complex spheroids (HUVEC, MSC), viability % test/control
Procedure text: Anticancer human tumor IGROV1 cell line growth inhibition [GQUAD]; active = viability on the fitted dose curve at most 10% of control; inactive = the rest;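 note: spheroids exposed to compounds for 7 days before readout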
Setup conditions: second compound 10 µM; first compound 1 µM
In this exercise, the only acceptable responses are active, inactive

Solved cases (2 shown):
Molecule: O=c1[nH]cc(F)c(=O)[nH]1 + Cc1[nH]c2ccc(F)cc2c1-c1nc2c3cccnc3c3ncccc3c2[nH]1
Study target: IGROV1 complex spheroids (HUVEC, MSC), viability % test/control
Assigned label: active

Molecule: O=c1[nH]cc(F)c(=O)[nH]1 + CN(C)c1ccc(Nc2c3ccc(NC(=O)CCN4CCCC4)cc3nc3cc(NC(=O)CCN4CCCC4)ccc23)cc1
Study target: IGROV1 complex spheroids (HUVEC, MSC), viability % test/control
Assigned label: inactive

Then this molecule:
Request: # fetch the recorded call for C=CC(=O)N1CCN(c2nc(=O)n(-c3c(C)ccnc3C(C)C)c3nc(-c4c(O)cccc4F)c(F)cc23)C(C)C1 (stereo unspecified) + CN(C)c1ccc(Nc2c3ccc(NC(=O)CCN4CCCC4)cc3nc3cc(NC(=O)CCN4CCCC4)ccc23)cc1 here
Result: inactive

====

Tested on: IGROV1 complex spheroids (HUVEC, MSC), viability % test/control
Procedure text: Anticancer human tumor IGROV1 cell line growth inhibition [GQUAD];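 note: spheroids exposed to compounds for 7 days before readout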;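 for viability, T/C: 100% = DMSO vehicle control viability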
Setup conditions: second compound 0.1 µM; first compound 0.316 µM; stronger effect = lower value
Text: DNA G-quadruplex Stabilizer Agents in Combinations in Complex Spheroids A high-throughput screen of multi-cell type tumor spheroids was designed to identify active combinations of DNA G-quadruplex stabilizer agents and targeted small molecules. […] Compounds. […] If the clinical Cmax for an agent had not been determined, the highest concentration tested was 10 microM. […]
Measurement kind: viability, T/C (%)
Could you give me the number in %? Just the number is fine.

# example entries with known answers
Molecule: C=CCn1c(=O)c2cnc(Nc3ccc(N4CCN(C)CC4)cc3)nc2n1-c1cccc(C(C)(C)O)n1 + CN(C)c1ccc(Nc2c3ccc(NC(=O)CCN4CCCC4)cc3nc3cc(NC(=O)CCN4CCCC4)ccc23)cc1
Recorded measurement: 12.1
//
Molecule: CCCS(=O)(=O)Nc1ccc(F)c(C(=O)c2c[nH]c3ncc(-c4ccc(Cl)cc4)cc23)c1F + CN(C)c1ccc(Nc2c3ccc(NC(=O)CCN4CCCC4)cc3nc3cc(NC(=O)CCN4CCCC4)ccc23)cc1
Recorded measurement: 90.4

Next molecule, viability, T/C to be filled in.
Request: Enter reported viability, T/C observed with IGROV1 complex spheroids (HUVEC, MSC), viability % test/control for O=c1[nH]cc(F)c(=O)[nH]1 + Cc1cnc(CNC(=O)c2c(=O)c3ccc(N4CCCN(C)CC4)nc3n3c2sc2ccccc23)cn1
Result: 41.9

====

System: IGROV1 complex spheroids (HUVEC, MSC), viability % test/control
Procedure text: Anticancer human tumor IGROV1 cell line growth inhibition [GQUAD]; active = viability on the fitted dose curve at most 10% of control; inactive = the rest;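 note: spheroids exposed to compounds for 7 days before readout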
Setup conditions: second compound 0.316 µM; first compound 0.0316 µM
In this exercise, the only acceptable responses are T (active), F (inactive)

Solved cases (5 shown):
Compound: C=CCn1c(=O)c2cnc(Nc3ccc(N4CCN(C)CC4)cc3)nc2n1-c1cccc(C(C)(C)O)n1 + CN(C)c1ccc(Nc2c3ccc(NC(=O)CCN4CCCC4)cc3nc3cc(NC(=O)CCN4CCCC4)ccc23)cc1
Study target: IGROV1 complex spheroids (HUVEC, MSC), viability % test/control
Assigned label: F

Compound: CCc1c2c(nc3ccc(O)cc13)-c1cc3c(c(=O)n1C2)COC(=O)[C@]3(O)CC + Cc1cnc(CNC(=O)c2c(=O)c3ccc(N4CCCN(C)CC4)nc3n3c2sc2ccccc23)cn1
Study target: IGROV1 complex spheroids (HUVEC, MSC), viability % test/control
Assigned label: T

Compound: Cc1cccc(N(C)C(=O)C2C(O)CCN2c2nc(C)cc(C(F)(F)F)c2C#N)c1 (stereo unspecified) + CN(C)c1ccc(Nc2c3ccc(NC(=O)CCN4CCCC4)cc3nc3cc(NC(=O)CCN4CCCC4)ccc23)cc1
Study target: IGROV1 complex spheroids (HUVEC, MSC), viability % test/control
Assigned label: F

Compound: CC1COCCN1c1cc(C2(S(C)(=N)=O)CC2)nc(-c2ccnc3[nH]ccc23)n1 (stereo unspecified) + CN(C)c1ccc(Nc2c3ccc(NC(=O)CCN4CCCC4)cc3nc3cc(NC(=O)CCN4CCCC4)ccc23)cc1
Study target: IGROV1 complex spheroids (HUVEC, MSC), viability % test/control
Assigned label: F

Compound: CC(C)(O)C1CCC(Nc2ccc3ncc(-c4cccc(C(F)(F)F)c4)n3n2)CC1 (stereo unspecified) + Cc1cnc(CNC(=O)c2c(=O)c3ccc(N4CCCN(C)CC4)nc3n3c2sc2ccccc23)cn1
Study target: IGROV1 complex spheroids (HUVEC, MSC), viability % test/control
Assigned label: F

Request: # fetch the recorded call for CC1COCCN1c1cc(C2(O)CC3CCC(C2)O3)c2cnn(-c3ccn[nH]3)c2n1 (stereo unspecified) + Cc1[nH]c2ccc(F)cc2c1-c1nc2c3cccnc3c3ncccc3c2[nH]1 here
Result: F

Request: # fetch the recorded call for O=c1[nH]cc(F)c(=O)[nH]1 + Cc1cnc(CNC(=O)c2c(=O)c3ccc(N4CCCN(C)CC4)nc3n3c2sc2ccccc23)cn1 here
Result: F

Request: # fetch the recorded call for Cc1[nH]c2ccccc2c1CCNCc1ccc(/C=C/C(=O)NO)cc1 + Cc1[nH]c2ccc(F)cc2c1-c1nc2c3cccnc3c3ncccc3c2[nH]1 here
Result: F

====

Property: viability, T/C; scope: individual compounds
Tested on: IGROV1 complex spheroids (HUVEC, MSC), viability % test/control
Procedure text: Anticancer human tumor IGROV1 cell line growth inhibition [GQUAD];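 note: spheroids exposed to compounds for 7 days before readout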;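 for viability, T/C: 100% = DMSO vehicle control viability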
Setup conditions: second compound 10 µM; first compound 0.316 µM; stronger effect = lower value

# example entries with known answers
Compound: C#Cc1c(F)ccc2cc(O)cc(-c3ncc4c(N5CC6CCC(C5)N6)nc(OCC56CCCN5CC(F)C6)nc4c3F)c12 (centres undefined) + CN(C)c1ccc(Nc2c3ccc(NC(=O)CCN4CCCC4)cc3nc3cc(NC(=O)CCN4CCCC4)ccc23)cc1
Recorded measurement: 59.8%
//
Compound: COc1cc(C2c3cc4c(cc3C(OC3OC5COC(C)OC5C(O)C3O)C3COC(=O)C23)OCO4)cc(OC)c1O (centres undefined) + Cc1[nH]c2ccc(F)cc2c1-c1nc2c3cccnc3c3ncccc3c2[nH]1
Recorded measurement: 4.88%

Request: Which viability, T/C is reported for this compound? CCCS(=O)(=O)Nc1ccc(F)c(C(=O)c2c[nH]c3ncc(-c4ccc(Cl)cc4)cc23)c1F + Cc1cnc(CNC(=O)c2c(=O)c3ccc(N4CCCN(C)CC4)nc3n3c2sc2ccccc23)cn1
Result: 8.82%

Request: Which viability, T/C is reported for this compound? CC(=O)O[C@H]1C(=O)[C@@]2(C)[C@H]([C@H](OC(=O)c3ccccc3)[C@]3(O)C[C@H](OC(=O)[C@H](O)[C@@H](NC(=O)c4ccccc4)c4ccccc4)C(C)=C1C3(C)C)[C@]1(OC(C)=O)CO[C@@H]1C[C@@H]2O + Cc1[nH]c2ccc(F)cc2c1-c1nc2c3cccnc3c3ncccc3c2[nH]1
Result: 2.16%

====

System: IGROV1 complex spheroids (HUVEC, MSC), viability % test/control
Procedure text: Anticancer human tumor IGROV1 cell line growth inhibition [GQUAD];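 note: spheroids exposed to compounds for 7 days before readout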
Setup conditions: curve of first compound; second compound 0.0316 µM
Property: log10 IC50; scope: individual compounds
Heads up, the numbers here are log10 of IC50 in µM units.

Compound: CCCS(=O)(=O)Nc1ccc(F)c(C(=O)c2c[nH]c3ncc(-c4ccc(Cl)cc4)cc23)c1F + Cc1[nH]c2ccc(F)cc2c1-c1nc2c3cccnc3c3ncccc3c2[nH]1
Recorded measurement: 0.68

Compound: COc1ncnc(C2CC2)c1-c1ncc2cnn(Cc3ccc(-c4nc(C(F)(F)F)cn4C(C)C)cc3)c2n1 + Cc1cnc(CNC(=O)c2c(=O)c3ccc(N4CCCN(C)CC4)nc3n3c2sc2ccccc23)cn1
Recorded measurement: 0.32

Compound: C=CCn1c(=O)c2cnc(Nc3ccc(N4CCN(C)CC4)cc3)nc2n1-c1cccc(C(C)(C)O)n1 + Cc1cnc(CNC(=O)c2c(=O)c3ccc(N4CCCN(C)CC4)nc3n3c2sc2ccccc23)cn1
Recorded measurement: -1.35

Compound: COc1ccc([C@@H](O)c2cc(-c3ncnc4cc(N5CCOCC5)ccc34)c(F)cc2Cl)nn1 + CN(C)c1ccc(Nc2c3ccc(NC(=O)CCN4CCCC4)cc3nc3cc(NC(=O)CCN4CCCC4)ccc23)cc1
Recorded measurement: 0.15

Next compound, log10 IC50 to be filled in.
Request: Which log10 IC50 is reported for this compound? CCCS(=O)(=O)Nc1ccc(F)c(C(=O)c2c[nH]c3ncc(-c4ccc(Cl)cc4)cc23)c1F + CN(C)c1ccc(Nc2c3ccc(NC(=O)CCN4CCCC4)cc3nc3cc(NC(=O)CCN4CCCC4)ccc23)cc1
Result: 0.75
